Source: patent US4808584A

system: Escherichia coli KC-14
value.type: MIC (µg/mL)
Give bare numbers, in µg/mL.

1) NC1CCN(c2c(F)cc3c(=O)c(C(=O)O)c4scc5n4c3c2OC5)C1 (stereo not drawn) = 0.1
2) O=C(O)c1c(=O)c2cc(F)c(N3CCNCC3)c3c2n2c(csc12)CO3 = 0.1
3) CC1CN(c2c(F)cc3c(=O)c(C(=O)O)c4scc5n4c3c2OC5)CCN1 (stereo not drawn) [Compound (E)] = 0.1
4) O=C(O)c1c(=O)c2cc(F)c(N3CCN(O)CC3)c3c2n2c(csc12)CO3 = 0.1
5) CC1COc2c(N3CCN(C)CC3)c(F)cc3c(=O)c(C(=O)O)cn1c23 (racemic) [Ofloxacin, reference compound] = 0.1

Fill in MIC for each of the 4 compounds listed.
1. O=C(O)c1c(=O)c2cc(F)c(N3CCC(O)C3)c3c2n2c(csc12)CO3 (stereo not drawn)
2. CCN1CCN(c2c(F)cc3c(=O)c(C(=O)O)c4scc5n4c3c2OC5)CC1
3. CN1CCN(c2c(F)cc3c(=O)c(C(=O)O)c4scc5n4c3c2OC5)CC1
4. O=C(O)c1c(=O)c2cc(F)c(N3CCCC3)c3c2n2c(csc12)CO3

A:
0.05
0.1
0.1
0.2
